Test system: M14 melanoma
assay-details: NCI-60 one-dose screen, 48 h (100 = growth as untreated, 0 = no growth, -100 = all killed)
measurement-conditions: 10 µM
This is part of a sample that, as a whole, favours compounds with a hit. Of some 83,000 tested, about 20% had one in any assay.
Attribute: growth
# unit: % | format: bare number

Some compounds with recorded growth:
-- ask Answer with the recorded growth for the compound listed here: O=C(c1ccccc1)N(C(=O)c1ccccc1)N1CCCC1
-- reply 102

-- ask Answer with the recorded growth for the compound listed here: COc1ccc(C(=O)CSc2nc(-c3cc(OC)ccc3OC)cc(-c3ccc(OC)cc3)c2C#N)cc1
-- reply 93.9

-- ask Answer with the recorded growth for the compound listed here: Cc1cc(SC#N)cc(C(C)(C)C)c1O
-- reply 90.3

Now consider a different compound.
-- ask Answer with the recorded growth for the compound listed here: CCCc1cn(CC(=O)Nc2nc3ccccc3s2)nn1
-- reply 102
